# Experimental system: T1, Claudin 18.2 (CLDN18.2), expressed on CHOS-CLDN 18.2 / HEK293-CLDN 18.2 / HCC827-CLDN 18.2 cells (human, UniProt P56856-2 1-261)
# T1 construct: whole, on cells; The species is not repeated for the CHOS-CLDN 18.2 cells; also called claudin-18A2
# Assay text: FACS, CHOS-CLDN18.2 cells
Readings of max for the listed binders

| Binder | max |
| --- | --- |
| QP14631461 (antibody, human IgG1, kappa, V domains shown, also called QP14611463) VH: QVQLVQSGAEVKKPGASVKVSCKASGYTFTSYIMHWVRQAPGQGLEWMGYINPYNDGTKYNEKFKGRVTMTRDTSTSTVYMELSSLRSEDTAVYYCARLGFTTRNAMDYWGQGTLVTVSS VL: DIVMTQSPDSLAVSLGERATINCKSSQSLLNSGNQKNYLAWYQQKPGQPPKLLIYGASTRESGVPDRFTGSGSGTDFTLTISSLQAEDVAVYYCQNDHSYPFTFGQGTKLEIKR | 227000 |
| QP207208 (antibody, human IgG1, V domains shown, Chimeric; also called 51A3; mouse-derived chimeric antibody QP207208) VH: EVQLQQSGPELVKPGASVKMSCKASGYTFTSYIMHWVKQKPGQGLEWIGYINPYNDGTKYNEKFKGKATLTSDKSSSTVYMELSSLTSEDSAVYCCARLGFTTRNAMDYWGQGTSVTVSS VL: DIVMTQSPSSLSVSAGEKVTMNCKSSQSLLNSGNQKNYLAWYQQKPGQPPKLLIYGASTRESGVPDRFTGSGSGTDFTLTISSVQAEDLAVYYCQNDHSYPFTFGSGTKLEIK | 187000 |
| QP024025 (antibody, human IgG1, V domains shown, also called IMAB362; 175D10(IMAB362)) VH: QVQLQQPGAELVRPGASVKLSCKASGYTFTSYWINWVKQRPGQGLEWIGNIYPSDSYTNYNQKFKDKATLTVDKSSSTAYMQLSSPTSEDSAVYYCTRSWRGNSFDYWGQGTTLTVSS VL: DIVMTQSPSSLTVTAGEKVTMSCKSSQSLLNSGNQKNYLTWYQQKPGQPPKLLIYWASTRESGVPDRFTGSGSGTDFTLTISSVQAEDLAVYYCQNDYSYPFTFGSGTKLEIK | 88600 |
| QP14651460 (antibody, human IgG1, kappa, V domains shown, Humanized from QP207208) VH: EVQLVQSGAEVKKPGASVKVSCKASGYTFTSYIMHWVRQAPGQGLEWIGYINPYNDGTKYNEKFKGRVTLTSDKSTSTVYMELSSLRSEDTAVYYCARLGFTTRNAMDYWGQGTLVTVSS VL: DIVMTQSPDSLAVSLGERATINCKSSQSLLNSGNQKNYLAWYQQKPGQPPKLLIYGASTRESGVPDRFSGSGSGTDFTLTISSLQAEDVAVYYCQNDHSYPFTFGQGTKLEIKR | 189000 |
| QP14641462 (antibody, human IgG1, kappa, V domains shown, Humanized from QP207208) VH: EVQLVQSGAEVKKPGASVKVSCKASGYTFTSYIMHWVRQAPGQGLEWIGYINPYNDGTKYNEKFKGRVTLTRDKSTSTVYMELSSLRSEDTAVYYCARLGFTTRNAMDYWGQGTLVTVSS VL: DIVMTQSPDSLAVSLGERATINCKSSQSLLNSGNQKNYLAWYQQKPGQPPKLLIYGASTRESGVPDRFTGSGSGTDFTLTISSVQAEDVAVYYCQNDHSYPFTFGQGTKLEIKR | 224000 |
